experiment: GSK_TCAKS: pIC50 HepG2 human cell line viability assay using luminiscence. […] Seeding density was checked to ensure that new mono-layers were not more than 50% confluent at the time of harvesting. Cell suspension was added to 500 mL of the same medium at a final density of 1.2 * 10^5 cells/mL. This cell suspension was dispensed (25 uL, 3000 cells per well) into 384-well clear-bottom plates using a Multidrop Combi dispenser. Prior to addition of the cell suspension, the screening compounds (250 nL) were pre-dispensed into the plates with an Echo liquid handler. Plates were incubated for 48 h at 37C, 5% CO2. After incubation, plates equilibrated at room temperature for 30 min before proceeding to develop the luminescent signal. The signal developer, CellTiter-Glo Reagent, was allowed to equilibrate at room temperature for 30 min and added to the plates (25uL per well) using a Multidrop Combi dispenser. Plates were left for 10 min at room temperature for stabilization and then read using a ViewLux.; type: toxicity, cell-based
readout: IC50 at 48 h

| molecule | readout | val |
| --- | --- | --- |
| COc1ccc(NS(=O)(=O)c2ccc(S(=O)(=O)N(C)C3CCCCC3)cc2)c2ncccc12 | IC50 at 48 h | > 100 µM |
| Cc1cccnc1CN1CCN(CCCOc2ccc(-c3ccc(C(N)=O)cc3)cc2)CC1 | IC50 at 48 h | > 100 µM |
| O=C1CN(Cc2ccco2)C2CS(=O)(=O)CC2N1c1ccc(Cl)cc1 (configuration not stated) | IC50 at 48 h | > 100 µM |
| CCC(=O)Nc1ccc(C(=O)Nc2ccccc2-c2ccccc2)cc1 | IC50 at 48 h | > 100 µM |
| COc1ccccc1C1CC(c2ccc(NS(C)(=O)=O)cc2)=NN1C(=O)c1cccs1 (configuration not stated) | IC50 at 48 h | > 100 µM |
| O=c1nc(NCCCNCc2cc(Br)cc(Br)c2)[nH]c2ccsc12 | IC50 at 48 h | 50.1 µM |
| Cc1nn(-c2nc3ccccc3[nH]2)c2c1C(c1ccc(O)cc1)CC(=O)N2 (configuration not stated) | IC50 at 48 h | 25.1 µM |
| CC1CN(Cc2ccc(C#N)cc2)CCN1c1ccc(NC(=O)c2ccccc2F)cc1 (configuration not stated) | IC50 at 48 h | > 100 µM |
| Cc1ccnc(NS(=O)(=O)c2ccc(NC(=O)c3ccc([N+](=O)[O-])s3)cc2)n1 | IC50 at 48 h | 15.8 µM |
| c1ccc(-c2nc(NCc3ccco3)c3ccccc3n2)nc1 | IC50 at 48 h | > 100 µM |
| O=C(CN1CCN(c2ccccn2)CC1)Nc1cc(S(=O)(=O)N2CCCCCC2)ccc1Cl | IC50 at 48 h | > 100 µM |
| CC(C)Nc1nccc(-c2c(-c3ccc(F)cc3)ncn2C2CCOCC2)n1 | IC50 at 48 h | > 100 µM |
| CS(=O)(=O)c1ccc(Nc2nccc(-c3cnn4ncccc34)n2)cc1 | IC50 at 48 h | 15.8 µM |
| O=C(NCC1CCCCC1)c1cnns1 | IC50 at 48 h | 39.8 µM |
| Nc1nc(-c2ccccn2)nc(-n2nc(-c3cccc(C(F)(F)F)c3)cc2N)n1 | IC50 at 48 h | 20 µM |
| CS(=O)(=O)N1CCC(Nc2ncc(Br)c(Nc3cccc(F)c3C(N)=O)n2)CC1 | IC50 at 48 h | > 100 µM |
| NC(=O)c1cc(F)ccc1Nc1nc(N[C@H]2CC[C@H](O)CC2)ncc1Cl | IC50 at 48 h | > 100 µM |
| COc1cnc2ccc(=O)n(CCN3CCC(NC/C=C/c4cc(F)ccc4F)CC3)c2c1 | IC50 at 48 h | 63.1 µM |
| O=C1CSC(c2cccnc2)N1c1ccc(Cl)cc1Cl (configuration not stated) | IC50 at 48 h | > 100 µM |
| Nc1nc(-c2ccccc2)cc(-c2nc3cccnc3[nH]2)n1 | IC50 at 48 h | 39.8 µM |
| COc1ccc(C(=O)[C@H]2C[C@@H]2CN(Cc2ccccn2)Cc2ccccn2)cc1 | IC50 at 48 h | > 100 µM |
| CCN(Cc1nc2ccc(C(=O)N3CCN(c4ncccn4)CC3)cc2[nH]1)C1CCCc2cccnc21 (configuration not stated) | IC50 at 48 h | > 100 µM |
| Oc1c(-c2nnc(Cc3ccc(F)cc3)[nH]2)ncc2cccnc12 | IC50 at 48 h | 25.1 µM |
| COc1cc(C(C)C)c(S(C)(=O)=O)cc1C(=O)N1CCN(c2ccccc2Cl)CC1 | IC50 at 48 h | > 100 µM |
| COc1cc(OC)cc(C(NS(=O)(=O)c2ccc(Cl)c(C(F)(F)F)c2)c2nccn2C)c1 (configuration not stated) | IC50 at 48 h | > 100 µM |
| Cc1nc2[nH]c(C)c(Cc3ccc(C(C)C)cc3)c(=O)n2n1 | IC50 at 48 h | > 100 µM |
| CC(C(=O)Nc1ccc(Br)cc1)N1CCN(c2ccc([N+](=O)[O-])cc2)CC1 (configuration not stated) | IC50 at 48 h | > 100 µM |
| NC(=O)c1ccccc1Nc1nc(NC2CCCCC2)nc2[nH]ccc12 | IC50 at 48 h | 20 µM |
| CCc1c(C)nc(-n2nc(C)cc2NC(=O)COc2ccccc2F)[nH]c1=O | IC50 at 48 h | > 100 µM |
| CC(C)C[C@H](NC(=O)c1ccc(-c2ccccc2)o1)C(=O)NC1(C#N)CC1 | IC50 at 48 h | > 100 µM |
| CCS(=O)(=O)Nc1ccc(C2=NN(C(=O)c3cccs3)C(c3ccccc3OC)C2)cc1 (configuration not stated) | IC50 at 48 h | > 100 µM |
| O=C(CSc1nnc2ccc(-c3ccc(F)cc3)nn12)N1CCCCC1 | IC50 at 48 h | > 100 µM |
| O=C(CCCn1cnc([N+](=O)[O-])n1)Nc1cccc(Cl)c1 | IC50 at 48 h | > 100 µM |
| Cc1nnc(-c2nc(NCc3ccc(Cl)cc3)c3cccnc3c2O)[nH]1 | IC50 at 48 h | 15.8 µM |
| CCOc1ccccc1C(=O)Nc1nnc(-c2ccc3c(c2)OCO3)s1 | IC50 at 48 h | > 100 µM |
| O=C(c1cccc(Cl)c1Cl)N1CCn2c1nc(-c1ccncc1)cc2=O | IC50 at 48 h | > 100 µM |
| CCOc1ccc(NC(=O)c2ccc(NC(=O)NC3CCCCC3)cc2)cc1 | IC50 at 48 h | > 100 µM |
| O=C(Cn1cnc2cc([N+](=O)[O-])ccc2c1=O)NCCc1ccc(Cl)cc1Cl | IC50 at 48 h | > 100 µM |
| COc1ccc(C2CC(c3ccccc3Cl)=NN2C(=O)CNC(=O)C2CCCC2)cc1 (configuration not stated) | IC50 at 48 h | > 100 µM |
| O=S(=O)(NCC(c1cccnc1)N1CCN(c2ccc(F)cc2)CC1)c1cccs1 (configuration not stated) | IC50 at 48 h | > 100 µM |
| O=c1cc(NCCCNC2CCOc3c(I)cc(Cl)cc32)[nH]c2ccccc12 (configuration not stated) | IC50 at 48 h | 63.1 µM |
| Cc1nn(C)c(Cl)c1CN(Cc1cccnc1)Cc1ccsc1 | IC50 at 48 h | > 100 µM |
